Origin of measurements: BindingDB's records for doi:10.1021/jm000160l

# tgt: Glyoxalase I (Saccharomyces cerevisiae) (UniProt P50107)
# Sequence (P50107 whole entry, looked up): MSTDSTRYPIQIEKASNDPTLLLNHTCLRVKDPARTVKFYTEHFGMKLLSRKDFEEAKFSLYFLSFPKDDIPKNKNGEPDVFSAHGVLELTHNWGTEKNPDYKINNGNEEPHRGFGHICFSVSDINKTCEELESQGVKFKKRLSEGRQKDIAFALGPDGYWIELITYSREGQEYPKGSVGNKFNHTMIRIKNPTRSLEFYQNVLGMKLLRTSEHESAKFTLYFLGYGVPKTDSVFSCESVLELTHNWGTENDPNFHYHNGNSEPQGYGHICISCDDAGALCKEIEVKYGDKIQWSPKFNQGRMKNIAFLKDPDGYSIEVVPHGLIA
attribute-measured: Ki (µM)
// return numeric value only (unit: µM, not printed)

Incoming: What is its Ki for Glyoxalase I (Saccharomyces cerevisiae) (UniProt P50107)? Entry: CN(O)C(=O)SC[C@H](NC(=O)CC[C@H](N)C(=O)O)C(=O)NCC(=O)O
Outgoing: 68
